Reported values of z-score for individual entries
- Run Description: E. coli acrAB mutant growth effects, primary screen, E. coli filamentation inducers, strain DRC39, OD650, 48 h (AID 1179);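 note: screen aims at cell division blockers that make cells filament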
- Measurement Setup: E. coli DRC39 delta-acrAB growth, higher = more signal, called active from +8 up or from −8 down
Write the number on its own, no unit after it.

Recorded results for 5 compounds are shown here.
CC(C)N1C(=O)[C@@]2(Cc3ccccc31)c1ccccc1C(=O)N(Cc1ccccc1)[C@H]2c1ccc(CO)cc1 : -0.665
COc1ccc(-c2cc3c(c(CCc4ccccc4)n2)[Si](C(C)C)(C(C)C)O[C@H]3c2ccccc2)cn1 : -0.893
O=C1O[C@@H](c2ccccc2)[C@@H](c2ccccc2)N2[C@@H](c3ccc(OCCO)cc3)[C@]3(C(=O)Nc4ccc(C#CC5=CCCCC5)cc43)[C@@H](C(=O)Nc3nc4ccccc4s3)[C@H]12 : 0.141
[N-]=[N+]=Nc1ccccc1C[C@@]1(C(=O)NCc2ccccc2)N=C(c2ccc(OCCCO)cc2)O[C@@H]1c1ccccc1 : -0.489
COc1cccc(C)c1NC(=O)O[C@H]1[C@H](OC(=O)Nc2ccc3c(c2)OCO3)[C@H](OC(=O)Nc2ccc3c(c2)OCO3)[C@@H](OC)O[C@@H]1CO : -0.0834

Give the measured z-score for CC(C)C(=C=CC[C@H](O)c1cccc(OCCO)c1)C[C@H](O)c1ccccn1
1.5

Provide z-score value for the following compound: O=C1NC(=O)C2C1C=CC(C(O)C1CCCCC1)N2Nc1ccccn1 (configuration not stated)
-0.286

Reference source: PubChem BioAssay
